Tested on: ghrelin receptor (HEK-GHSR1 stable cells) (Homo sapiens, UniProt Q92847)
Construct: expressed in transfected cells
Sequence (Q92847 whole entry): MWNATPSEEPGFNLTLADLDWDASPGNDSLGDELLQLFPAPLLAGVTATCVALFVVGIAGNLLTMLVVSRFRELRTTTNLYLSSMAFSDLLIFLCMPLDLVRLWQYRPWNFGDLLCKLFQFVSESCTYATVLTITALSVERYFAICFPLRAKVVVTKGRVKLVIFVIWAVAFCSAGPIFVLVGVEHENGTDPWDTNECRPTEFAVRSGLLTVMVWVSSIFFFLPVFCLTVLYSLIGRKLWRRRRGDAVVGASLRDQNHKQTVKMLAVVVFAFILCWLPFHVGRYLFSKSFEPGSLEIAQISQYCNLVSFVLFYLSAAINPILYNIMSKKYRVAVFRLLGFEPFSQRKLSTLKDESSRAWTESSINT
Test name: Ghrelin receptor inverse agonist assay (HTRF IP-one), Method B4
Type: cell-based
Run parameters: inverse agonist at the ghrelin receptor, Method B4
pIC50: −log10 of the molar value.
Property measured: pIC50

| Compound | pIC50 |
| --- | --- |
| CC[C@@H]1C#Cc2ccc(F)cc2OCCN[C@@H](C(C)C)C(=O)N(C)[C@@H](C(C)O)C(=O)N[C@H](Cc2c[nH]c3ccccc23)C(=O)N1 (some centres unmarked) | 7.00 to 7.30 |
| CCC1CCc2ccc(F)cc2OCCNC(CC)C(=O)N(C)C(C(C)O)C(=O)NC(Cc2c[nH]c3ccccc23)C(=O)N1 (centres unmarked) | 6.30 to 7.00 |
| CCC1CCc2ccccc2OCCNC(C(C)C)C(=O)N(C)C(C(C)O)C(=O)NC(Cc2c[nH]c3ccc(F)cc23)C(=O)N1 (centres unmarked) | 7.30 to 8.00 |

Fetch value of pIC50 on ghrelin receptor (HEK-GHSR1 stable cells) (Homo sapiens, UniProt Q92847) for CC[C@@H]1CCc2ccc(F)cc2OCCN[C@@H](C2(C)CC2)C(=O)N(C)[C@@H](C(C)O)C(=O)N[C@H](Cc2ccccc2)C(=O)N1 (some centres unmarked) . 7.00 to 7.30

Fetch value of pIC50 on ghrelin receptor (HEK-GHSR1 stable cells) (Homo sapiens, UniProt Q92847) for CC[C@@H]1CCc2c(F)cccc2OCCN[C@@H](C(C)C)C(=O)N(C)[C@@H](C(C)O)C(=O)N[C@H](Cc2ccc(F)cc2)C(=O)N1 (some centres unmarked) . 6.30 to 7.00

Fetch value of pIC50 on ghrelin receptor (HEK-GHSR1 stable cells) (Homo sapiens, UniProt Q92847) for CC[C@@H]1C#Cc2ccc(F)cc2OCCN[C@@H](C(C)C)C(=O)N(C)[C@@H](C(C)O)C(=O)N[C@H](Cc2cccc(F)c2)C(=O)N1 (some centres unmarked) . 7.00 to 7.30

Fetch value of pIC50 on ghrelin receptor (HEK-GHSR1 stable cells) (Homo sapiens, UniProt Q92847) for CCC(C)C1NCCOc2cc(F)ccc2C=CCNC(=O)C(Cc2ccc(Cl)cc2)NC(=O)C(C(C)O)N(C)C1=O (centres unmarked) . 6.30 to 7.00

Fetch value of pIC50 on ghrelin receptor (HEK-GHSR1 stable cells) (Homo sapiens, UniProt Q92847) for CC(O)[C@H]1C(=O)N[C@H](Cc2c[nH]c3ccccc23)C(=O)N[C@H](C)C#Cc2ccc(F)cc2O[C@H](C)CN[C@@H](C2(C)CC2)C(=O)N1C (some centres unmarked) . 6.30 to 7.00

Fetch value of pIC50 on ghrelin receptor (HEK-GHSR1 stable cells) (Homo sapiens, UniProt Q92847) for CCC(C)C1NCCOc2ccccc2C=CCNC(=O)C(Cc2ccccc2C)NC(=O)C(C(C)O)N(C)C1=O (centres unmarked) . 7.00 to 7.30

Fetch value of pIC50 on ghrelin receptor (HEK-GHSR1 stable cells) (Homo sapiens, UniProt Q92847) for CC(C)C1NCCOc2cc(F)ccc2C#CCNC(=O)C(Cc2c[nH]c3ccccc23)NC(=O)C(C(C)O)N(C)C1=O (centres unmarked) . 6.30 to 7.00

Fetch value of pIC50 on ghrelin receptor (HEK-GHSR1 stable cells) (Homo sapiens, UniProt Q92847) for CC[C@@H]1CCc2ccc(F)cc2OCCN[C@@H](C(C)C)C(=O)N(C)[C@@H](C(C)O)C(=O)N[C@H](Cc2ccc(Cl)cc2)C(=O)N1 (some centres unmarked) . 7.00 to 7.30

Fetch value of pIC50 on ghrelin receptor (HEK-GHSR1 stable cells) (Homo sapiens, UniProt Q92847) for CCC1CCc2ccc(F)cc2OCCNC(C(C)C)C(=O)N(C)C(C(C)O)C(=O)NC(Cc2c[nH]c3ccc(F)cc23)C(=O)N1 (centres unmarked) . 7.30 to 8.00

Fetch value of pIC50 on ghrelin receptor (HEK-GHSR1 stable cells) (Homo sapiens, UniProt Q92847) for CCC(C)C1NCCOc2ccc(F)cc2C=CCNC(=O)C(Cc2ccc(Cl)cc2)NC(=O)C(C(C)O)N(C)C1=O (centres unmarked) . 6.30 to 7.00

Fetch value of pIC50 on ghrelin receptor (HEK-GHSR1 stable cells) (Homo sapiens, UniProt Q92847) for CC1CCc2ccccc2OCCNC(C(C)C)C(=O)N(C)C(C(C)O)C(=O)NC(Cc2c[nH]c3ncccc23)C(=O)N1 (centres unmarked) . 7.30 to 8.00

Fetch value of pIC50 on ghrelin receptor (HEK-GHSR1 stable cells) (Homo sapiens, UniProt Q92847) for CCC1CCc2ccc(F)cc2OCCNC(CC)C(=O)N(C)C(C(C)O)C(=O)NC(Cc2ccc(F)cc2)C(=O)N1 (centres unmarked) . 6.30 to 7.00

Fetch value of pIC50 on ghrelin receptor (HEK-GHSR1 stable cells) (Homo sapiens, UniProt Q92847) for CC(C)C1NCCOc2cc(F)ccc2C=CCNC(=O)C(Cc2ccc(F)cc2)NC(=O)C(C(C)O)N(C)C1=O (centres unmarked) . 7.00 to 7.30

FYI, the data here is from patent US20110105389A1.
